- Test system: MCC-13
- Experimental details: qHTS assay to identify novel small-molecules to repurpose for Merkel cell carcinoma treatment (AID 1296009); also: nearly all actives have a fitted effect of over 60% in size
- Condition summary: MCC and control cell lines, CellTiter-Glo viability, 72 h; series mostly up to 46 µM
Results filed as inconclusive are left out. The source made the active and inactive calls. Calls follow the shape of the dose curve; as a rule, active = well fitted inhibition curve with a large enough effect; inconclusive = small, poorly fitted or top-dose-only effect; inactive = flat fitted curve, though single readings scatter.
Field 'call' accepts active, inactive

Here's what some known entries look like.
Compound: CCN(CC)CCCCNc1ncc2c(n1)N(C)C(=O)N(c1c(Cl)c(OC)cc(OC)c1Cl)C2
Study system: MCC-13
Class: inactive
--
Compound: Cc1ccc(-n2[nH]c(C)c(N=Nc3cccc(-c4cccc(C(=O)O)c4)c3O)c2=O)cc1C
Study system: MCC-13
Class: inactive
--
Compound: O=S(=O)(O)CCSSCCS(=O)(=O)O
Study system: MCC-13
Class: inactive

Lab log entry: `O=C1c2cccc(O)c2C(=O)c2c(O)cc(CO)cc21` — outcome as called in the assay? inactive

Same lookup for `CC(C)c1cc(C(C)C)c(CC(=O)NS(=O)(=O)Oc2c(C(C)C)cccc2C(C)C)c(C(C)C)c1` , please. inactive

Also `CCN(C(=O)c1c(O)c2c(Cl)cccc2n(C)c1=O)c1ccccc1` ? inactive

What about `Cn1cc(C=CC(=O)c2cccc(F)c2)cc1C=CC(=O)NO` ? inactive

Same question for `O=C(C=CC#Cc1cccc(NS(=O)(=O)c2ccccc2)c1)NO` please. active

Try `CC(C)(O)Cn1c(NC(=O)c2ccc(-c3cn[nH]c3)s2)nc2cc(CN3CCOCC3)ccc21` next. active

Next entry: `CN[C@H]1[C@@H](O)[C@@H]2O[C@@H]3O[C@H](C)CC(=O)[C@]3(O)O[C@@H]2[C@@H](NC)[C@H]1O` inactive

Repeat with `COc1cccc2c1C(=O)c1c(O)c3c(c(O)c1C2=O)C[C@@](O)(C(=O)CO)C[C@@H]3O[C@H]1C[C@H](N)[C@@H](O)[C@H](C)O1` active

Check `COC(=O)[C@H](CCCN=C(N)N)NS(=O)(=O)c1ccc(C)cc1` too. inactive

Next compound: `CCOc1cc2c(c(F)c1OCC)C(=N)N(CC(=O)c1cc(N3CCOCC3)c(OC)c(C(C)(C)C)c1)C2` inactive

---

- Experimental details: Quantitative High-Throughput drug screen in 47 multiple myeloma cell lines against the NCATS MIPE library collection: OPM1_PLB cell viability assay (AID 1918989); also: nearly all actives have a fitted effect of over 40% in size
- Condition summary: CellTiter-Glo, 48 h; series mostly up to 45.8 µM
Records with an inconclusive call do not appear. The source made the active and inactive calls. Calls come from the whole dose curve; as a rule, active = well fitted cell-killing curve with a large enough effect; inconclusive = small, poorly fitted or top-dose-only effect, or effect the other way; inactive = no such curve, though single readings can be large or run the other way.
Permitted responses: y (active), n (inactive)

Worked cases, answers included:
Compound: Cc1cn([C@@H]2O[C@H](CO)[C@@H](O)[C@H]2F)c(=O)[nH]c1=O
Class: n

Compound: O=C1NC(=O)[C@@H](c2cn3c4c(cccc24)CCC3)[C@H]1c1c[nH]c2ccccc12
Class: y

Compound: CC(=O)[C@]1(O)Cc2c(O)c3c(c(O)c2[C@@H](O[C@H]2C[C@H](N)[C@@H](O)[C@H](C)O2)C1)C(=O)c1ccccc1C3=O
Class: y

Compound: Cn1cc(C=CC(=O)c2cccc(F)c2)cc1C=CC(=O)NO
Class: y

Assay result, entry C[C@H](CCC(=O)O)[C@H]1CCC2C3C[C@H](O)[C@@H]4C[C@H](O)CC[C@]4(C)C3CC[C@@]21C (stereo partly drawn) — outcome? n

Next up: `C[C@H](NCc1ccc2c(c1)nc(NC(=O)c1ccc(-c3cn[nH]c3)s1)n2CCc1ccccc1)C(C)(C)C` y

Now this one: `N#Cc1cc(NC(=O)Nc2nnc(-c3ccncc3)s2)ccc1-c1cn[nH]c1` n

Query `C[C@]12CC[C@@H]3c4ccc(O)cc4CC[C@H]3[C@H]1CC[C@H]2O` next y

Try this compound too: `C=CC1=C(C(=O)O)N2C(=O)[C@@H](NC(=O)C(=NO)c3csc(N)n3)[C@H]2SC1` n

Next: `COc1cccc2c1C(=O)c1c(O)c3c(c(O)c1C2=O)C[C@@](O)(C(=O)CO)C[C@@H]3O[C@H]1C[C@H](N)[C@@H](O)[C@H](C)O1` y

Lookup `C=CCNc1c(O)cc2c(O)c1C[C@@H](C)C[C@H](OC)[C@@H](O)[C@@H](C)C=C(C)[C@H](OC(N)=O)[C@@H](OC)C=CC=C(C)C(=O)N2` y

Also, `C[C@H](CCC(=O)O)[C@H]1CC[C@H]2[C@@H]3[C@H](O)C[C@@H]4C[C@H](O)CC[C@]4(C)[C@@H]3CC[C@]12C` please. n

Likewise for `C[N+]1(C)[C@@H]2C[C@@H](OC(=O)C(O)(c3cccs3)c3cccs3)C[C@H]1[C@@H]1O[C@@H]12` ? n

What would you report for CCOC(=O)C1=C(C)NC(=S)NC1c1cccc(O)c1 (stereo not drawn) ? y

Next up: `CC(C)(O)[C@H]1CC[C@@](C)([C@H]2[C@@H](O)C[C@@]3(C)[C@@H]4C[C@H](O[C@@H]5O[C@H](CO)[C@@H](O)[C@H](O)[C@@H]5O)[C@H]5C(C)(C)[C@@H](O[C@@H]6OC[C@@H](O)[C@H](O)[C@@H]6O)CC[C@@]56C[C@@]46CC[C@]23C)O1` y

Now consider `CC(=O)NCC(=O)N1[C@H]2CC[C@H]1c1cc(Nc3ncc(C(F)(F)F)c(NC4CCC4)n3)ccc12` and answer again. y

Input `CS(=O)(=O)N1CCc2c(-c3cnc(N)nc3)nc(N3CCOCC3)nc21` y

Now consider `CNC(=O)c1cccc(-c2ccc3c(N4CCOC[C@H]4C)nc(N4CCOC[C@H]4C)nc3n2)c1` . y
